For each entry below, report its PO Max effect (cumulative agitation score over 60 min) value.
Tested on: Apomorphine-induced agitation
Assay: Reversal of Apomorphine-induced Agitation in Rats (APO)
Assay type: in vivo, rat
Conditions: oral route; apomorphine 1.0 mg/kg i.v.
Please respond with just the number, no unit label.

Incoming: Item: `COc1ccc(Cl)c(-c2nnc3c(C)nc4ccc(C(=O)NCc5ccccn5)cc4n23)c1` Test system: Apomorphine-induced agitation Read-out: PO Max effect (cumulative agitation score over 60 min) Value: ?
Outgoing: 19

Incoming: Further, for `COc1cc(CNC(=O)c2ccc3nc(C)c4nnc(-c5ccccc5Cl)n4c3c2)cc(OC)c1OC` ?
Outgoing: 21

Incoming: Let us now turn to `Cc1ncccc1-c1nnc2c(C)nc3ccc(OC(F)(F)F)cc3n12`
Outgoing: 16

Incoming: Subsequent entry: `Cc1nc2ccc(O)cc2n2c(-c3ccccc3Cl)nnc12`
Outgoing: 19

Incoming: Let us now turn to Cc1nc2ccc(C(O)C(F)(F)F)cc2n2c(-c3ccccc3Cl)nnc12 (stereo not drawn)
Outgoing: 24

Incoming: What would you report for `COCCNc1ccc2nc(C)c3nnc(-c4ccccc4Cl)n3c2c1` ?
Outgoing: 21

Incoming: `Cc1nc2ccc(C(=O)NCCF)cc2n2c(-c3ccccc3Cl)nnc12` , same question.
Outgoing: 22

Incoming: Entry to check: `Cc1nc2ccc(C(=O)NCCc3ccccc3)cc2n2c(-c3ccccc3Cl)nnc12`
Outgoing: 19

Incoming: Same lookup for `Cc1ncccc1-c1nnc2c(C)nc3ccc(C(F)(F)F)cc3n12` , please.
Outgoing: 19
